- TESTED TARGET: Muscarinic acetylcholine receptor M3 (Homo sapiens)
- Sequence (P20309 whole entry): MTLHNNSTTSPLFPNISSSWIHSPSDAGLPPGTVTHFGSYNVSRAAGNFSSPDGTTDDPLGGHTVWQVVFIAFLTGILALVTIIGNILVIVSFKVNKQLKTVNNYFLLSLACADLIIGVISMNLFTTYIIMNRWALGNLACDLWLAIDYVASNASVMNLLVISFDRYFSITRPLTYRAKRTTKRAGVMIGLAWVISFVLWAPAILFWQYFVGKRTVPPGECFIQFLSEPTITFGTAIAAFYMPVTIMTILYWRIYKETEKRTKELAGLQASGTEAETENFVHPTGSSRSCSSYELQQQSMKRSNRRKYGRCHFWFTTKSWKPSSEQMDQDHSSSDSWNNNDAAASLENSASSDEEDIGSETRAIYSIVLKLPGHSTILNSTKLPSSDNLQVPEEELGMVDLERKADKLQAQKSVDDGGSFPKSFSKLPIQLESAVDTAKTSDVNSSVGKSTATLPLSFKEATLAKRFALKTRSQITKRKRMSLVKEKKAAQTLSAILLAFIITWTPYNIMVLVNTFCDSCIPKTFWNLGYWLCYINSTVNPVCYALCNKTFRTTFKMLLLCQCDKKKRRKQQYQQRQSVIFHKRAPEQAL
- PROCEDURE SUMMARY: Binding affinity against human muscarine receptor (hM3) cloned in CHO cells
Overview of recorded pKi for various molecules
Scale for pKi: -log10 of concentration given in mol/L; no unit attached.

[
  {
    "GIVEN SMILES": "C[C@@H]1OC(=O)[C@@H]2C[C@@H]3CCCC[C@@H]3[C@@H](C#C[C@H]3CCC[C@H](C)N3C)[C@H]12",
    "pKi": 4.96
  },
  {
    "GIVEN SMILES": "C[C@@H]1OC(=O)[C@H]2C[C@H]3CCCC[C@@H]3[C@@H](C#C[C@H]3CCC[C@H](C)N3C)[C@@H]12",
    "pKi": 5.48
  }
]

Now turn to the next molecule.
Bench note: what pKi did C[C@@H]1OC(=O)[C@H]2C[C@H]3CCCC[C@H]3[C@H](C#C[C@H]3CCC[C@H](C)N3C)[C@@H]12 show? 5.30
